target: T1, Anti-PSMA Fab (006 PSMA Fab) (biotinylated (site not stated))
T1 construct: Biotinylated PSMA Fab captured on neutravidin coated plates
test_protocol: clonal phage ELISA, biotinylated PSMA Fab on neutravidin plates, anti-M13 HRP detection
measurement_type: Phage binding ELISA signal, Anti-PSMA Fab
Give bare numbers.

AELLCVPTWMCMGF [Phage-3014] : 2.2
SEVMCVPQWMCNGF [Phage-3008] : 2.21
ANVACIPPWMCLGF [Phage-3016] : 2.2
QWLRCEPEWMCIGF [Phage-3012] : 2.21
GMPYCVPEWMCSWL [Phage-3010] : 2.21
WEPVCKPDWMCNGF [Phage-3011] : 2.21

Take each entry in turn and give its Phage binding ELISA signal, Anti-PSMA Fab.
1. WWPSCVPEWMCAGL [Phage-3009]
2. VEPMCRPAWMCLGF [Phage-3004]
3. VQGVCVPSWMCTGF [Phage-3017]
4. STMMCVPPWMCMGF [Phage-3013]
5. MYHMCRPSWMCEGF [Phage-3007]
6. PAEWCIPVWMCTGF [Phage-3015]

Result:
1. 2.21
2. 2.21
3. 2.2
4. 2.21
5. 2.21
6. 2.2

Hey, can you go through the list below and give me Phage binding ELISA signal, Anti-PSMA Fab for every item?
1. VMVECRPAWMCNGF [Phage-3006]
2. ALPMCEPFWMCTGF [Phage-3005]

Result:
1. 2.21
2. 2.21
